Where do the numbers come from? From patent US20250296948A1.

test: 6 month dry powder stability, Alpha Naphthol content by HPLC; type: physicochemical; details: 2-8 ° C.
endpoint.label: Increase after 6 months, Alpha Naphthol by HPLC

• C[C@H](NP(=O)(OC[C@H]1O[C@@H](n2cc(F)c(=O)[nH]c2=O)CC1O)Oc1cccc2ccccc12)C(=O)OCc1ccccc1 (stereo partly shown) [Comparative Example 4] = None
• C[C@H](NP(=O)(OC[C@H]1O[C@@H](n2cc(F)c(=O)[nH]c2=O)CC1O)Oc1cccc2ccccc12)C(=O)OCc1ccccc1 (stereo partly shown) [Example 3, Batch 2] = None
• C[C@H](NP(=O)(OC[C@H]1O[C@@H](n2cc(F)c(=O)[nH]c2=O)CC1O)Oc1cccc2ccccc12)C(=O)OCc1ccccc1 (stereo partly shown) [Example 3, Batch 3] = None
• C[C@H](NP(=O)(OC[C@H]1O[C@@H](n2cc(F)c(=O)[nH]c2=O)CC1O)Oc1cccc2ccccc12)C(=O)OCc1ccccc1 (stereo partly shown) [Example 3, Batch 1] = None

###

assay: 6 month dry powder stability, HPLC assay; type: physicochemical; settings: 40 ° C., 2 months
Entries and their HPLC assay (% w/w on anhydrous and solvent free basis) values follow.
endpoint.label: HPLC assay (% w/w on anhydrous and solvent free basis) (% w/w)

- C[C@H](NP(=O)(OC[C@H]1O[C@@H](n2cc(F)c(=O)[nH]c2=O)CC1O)Oc1cccc2ccccc12)C(=O)OCc1ccccc1 (stereo partly shown) [Example 3, Batch 1]: 101.5
- C[C@H](NP(=O)(OC[C@H]1O[C@@H](n2cc(F)c(=O)[nH]c2=O)CC1O)Oc1cccc2ccccc12)C(=O)OCc1ccccc1 (stereo partly shown) [Example 3, Batch 3]: 101.5
- C[C@H](NP(=O)(OC[C@H]1O[C@@H](n2cc(F)c(=O)[nH]c2=O)CC1O)Oc1cccc2ccccc12)C(=O)OCc1ccccc1 (stereo partly shown) [Comparative Example 4]: 99.0
- C[C@H](NP(=O)(OC[C@H]1O[C@@H](n2cc(F)c(=O)[nH]c2=O)CC1O)Oc1cccc2ccccc12)C(=O)OCc1ccccc1 (stereo partly shown) [Example 3, Batch 2]: 100.9

###

assay: 6 month dry powder stability, Alpha Naphthol content by HPLC; type: physicochemical; settings: 2-8 ° C., 6 months
endpoint.label: Alpha Naphthol by HPLC (% w/w)

- C[C@H](NP(=O)(OC[C@H]1O[C@@H](n2cc(F)c(=O)[nH]c2=O)CC1O)Oc1cccc2ccccc12)C(=O)OCc1ccccc1 (stereo partly shown) [Example 3, Batch 1]: 0.15
- C[C@H](NP(=O)(OC[C@H]1O[C@@H](n2cc(F)c(=O)[nH]c2=O)CC1O)Oc1cccc2ccccc12)C(=O)OCc1ccccc1 (stereo partly shown) [Comparative Example 4]: 0.09
- C[C@H](NP(=O)(OC[C@H]1O[C@@H](n2cc(F)c(=O)[nH]c2=O)CC1O)Oc1cccc2ccccc12)C(=O)OCc1ccccc1 (stereo partly shown) [Example 3, Batch 2]: 0.43
- C[C@H](NP(=O)(OC[C@H]1O[C@@H](n2cc(F)c(=O)[nH]c2=O)CC1O)Oc1cccc2ccccc12)C(=O)OCc1ccccc1 (stereo partly shown) [Example 3, Batch 3]: 0.17

###

experiment: 6 month dry powder stability, Alpha Naphthol content by HPLC; type: physicochemical; details: 25 ° C.
endpoint.label: Increase after 6 months, Alpha Naphthol by HPLC

- C[C@H](NP(=O)(OC[C@H]1O[C@@H](n2cc(F)c(=O)[nH]c2=O)CC1O)Oc1cccc2ccccc12)C(=O)OCc1ccccc1 (stereo partly shown) [Example 3, Batch 2]: None
- C[C@H](NP(=O)(OC[C@H]1O[C@@H](n2cc(F)c(=O)[nH]c2=O)CC1O)Oc1cccc2ccccc12)C(=O)OCc1ccccc1 (stereo partly shown) [Example 3, Batch 1]: None
- C[C@H](NP(=O)(OC[C@H]1O[C@@H](n2cc(F)c(=O)[nH]c2=O)CC1O)Oc1cccc2ccccc12)C(=O)OCc1ccccc1 (stereo partly shown) [Example 3, Batch 3]: None
- C[C@H](NP(=O)(OC[C@H]1O[C@@H](n2cc(F)c(=O)[nH]c2=O)CC1O)Oc1cccc2ccccc12)C(=O)OCc1ccccc1 (stereo partly shown) [Comparative Example 4]: 0.1 % w/w

###

Entries and their HPLC assay (% w/w on anhydrous and solvent free basis) values follow.
test: 6 month dry powder stability, HPLC assay; assay type: physicochemical; settings: 2-8 ° C., 6 months
endpoint.label: HPLC assay (% w/w on anhydrous and solvent free basis) (% w/w)

- C[C@H](NP(=O)(OC[C@H]1O[C@@H](n2cc(F)c(=O)[nH]c2=O)CC1O)Oc1cccc2ccccc12)C(=O)OCc1ccccc1 (stereo partly shown) [Comparative Example 4]: 100
- C[C@H](NP(=O)(OC[C@H]1O[C@@H](n2cc(F)c(=O)[nH]c2=O)CC1O)Oc1cccc2ccccc12)C(=O)OCc1ccccc1 (stereo partly shown) [Example 3, Batch 2]: 100.4
- C[C@H](NP(=O)(OC[C@H]1O[C@@H](n2cc(F)c(=O)[nH]c2=O)CC1O)Oc1cccc2ccccc12)C(=O)OCc1ccccc1 (stereo partly shown) [Example 3, Batch 3]: 100.5
- C[C@H](NP(=O)(OC[C@H]1O[C@@H](n2cc(F)c(=O)[nH]c2=O)CC1O)Oc1cccc2ccccc12)C(=O)OCc1ccccc1 (stereo partly shown) [Example 3, Batch 1]: 100.4

###

assay: 6 month dry powder stability, HPLC assay; assay type: physicochemical; settings: 40 ° C., 0 months
endpoint.label: HPLC assay (% w/w on anhydrous and solvent free basis) (% w/w)

- C[C@H](NP(=O)(OC[C@H]1O[C@@H](n2cc(F)c(=O)[nH]c2=O)CC1O)Oc1cccc2ccccc12)C(=O)OCc1ccccc1 (stereo partly shown) [Example 3, Batch 3]: 100.3
- C[C@H](NP(=O)(OC[C@H]1O[C@@H](n2cc(F)c(=O)[nH]c2=O)CC1O)Oc1cccc2ccccc12)C(=O)OCc1ccccc1 (stereo partly shown) [Example 3, Batch 2]: 100.2
- C[C@H](NP(=O)(OC[C@H]1O[C@@H](n2cc(F)c(=O)[nH]c2=O)CC1O)Oc1cccc2ccccc12)C(=O)OCc1ccccc1 (stereo partly shown) [Example 3, Batch 1]: 100.4
- C[C@H](NP(=O)(OC[C@H]1O[C@@H](n2cc(F)c(=O)[nH]c2=O)CC1O)Oc1cccc2ccccc12)C(=O)OCc1ccccc1 (stereo partly shown) [Comparative Example 4]: 99.7

###

assay: 6 month dry powder stability, HPLC assay; format: physicochemical; conditions: 25 ° C.
endpoint.label: Decrease after 6 months, HPLC assay

* C[C@H](NP(=O)(OC[C@H]1O[C@@H](n2cc(F)c(=O)[nH]c2=O)CC1O)Oc1cccc2ccccc12)C(=O)OCc1ccccc1 (stereo partly shown) [Example 3, Batch 3] | None
* C[C@H](NP(=O)(OC[C@H]1O[C@@H](n2cc(F)c(=O)[nH]c2=O)CC1O)Oc1cccc2ccccc12)C(=O)OCc1ccccc1 (stereo partly shown) [Example 3, Batch 2] | None
* C[C@H](NP(=O)(OC[C@H]1O[C@@H](n2cc(F)c(=O)[nH]c2=O)CC1O)Oc1cccc2ccccc12)C(=O)OCc1ccccc1 (stereo partly shown) [Comparative Example 4] | 0.1 % w/w
* C[C@H](NP(=O)(OC[C@H]1O[C@@H](n2cc(F)c(=O)[nH]c2=O)CC1O)Oc1cccc2ccccc12)C(=O)OCc1ccccc1 (stereo partly shown) [Example 3, Batch 1] | None

###

Entries and their Alpha Naphthol by HPLC (% w/w) values follow.
assay: 6 month dry powder stability, Alpha Naphthol content by HPLC; type: physicochemical; settings: 2-8 ° C., 3 months
endpoint.label: Alpha Naphthol by HPLC (% w/w)

• C[C@H](NP(=O)(OC[C@H]1O[C@@H](n2cc(F)c(=O)[nH]c2=O)CC1O)Oc1cccc2ccccc12)C(=O)OCc1ccccc1 (stereo partly shown) [Comparative Example 4] = 0.10
• C[C@H](NP(=O)(OC[C@H]1O[C@@H](n2cc(F)c(=O)[nH]c2=O)CC1O)Oc1cccc2ccccc12)C(=O)OCc1ccccc1 (stereo partly shown) [Example 3, Batch 2] = 0.46
• C[C@H](NP(=O)(OC[C@H]1O[C@@H](n2cc(F)c(=O)[nH]c2=O)CC1O)Oc1cccc2ccccc12)C(=O)OCc1ccccc1 (stereo partly shown) [Example 3, Batch 3] = 0.18
• C[C@H](NP(=O)(OC[C@H]1O[C@@H](n2cc(F)c(=O)[nH]c2=O)CC1O)Oc1cccc2ccccc12)C(=O)OCc1ccccc1 (stereo partly shown) [Example 3, Batch 1] = 0.16

###

assay: 6 month dry powder stability, HPLC assay; assay type: physicochemical; details: 40 ° C.
endpoint.label: Decrease after 6 months, HPLC assay

- C[C@H](NP(=O)(OC[C@H]1O[C@@H](n2cc(F)c(=O)[nH]c2=O)CC1O)Oc1cccc2ccccc12)C(=O)OCc1ccccc1 (stereo partly shown) [Comparative Example 4]: 2.0 % w/w
- C[C@H](NP(=O)(OC[C@H]1O[C@@H](n2cc(F)c(=O)[nH]c2=O)CC1O)Oc1cccc2ccccc12)C(=O)OCc1ccccc1 (stereo partly shown) [Example 3, Batch 3]: None
- C[C@H](NP(=O)(OC[C@H]1O[C@@H](n2cc(F)c(=O)[nH]c2=O)CC1O)Oc1cccc2ccccc12)C(=O)OCc1ccccc1 (stereo partly shown) [Example 3, Batch 1]: None
- C[C@H](NP(=O)(OC[C@H]1O[C@@H](n2cc(F)c(=O)[nH]c2=O)CC1O)Oc1cccc2ccccc12)C(=O)OCc1ccccc1 (stereo partly shown) [Example 3, Batch 2]: None
